// provenance: paper PMC10397247

Target: T1, 4H3409-AA
T1 chain: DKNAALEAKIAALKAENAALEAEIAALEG
Assay: two-hybrid library CCmax;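 further: natural log of median RNA to DNA barcode read ratio; higher means stronger binding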
Conditions: mean of both orientations
readout-kind: interaction score
Response field accepts a number only; no unit should be typed.

Prompt: For the binder DKIAALKAEIAALKAENAALEAKIAALKG [4H2646-AA] , what interaction score is on record?
Response: -0.0843

Prompt: For the binder DKIAALKAKIAALEAKNAALKAEIAALEG [4H2873-AA] , what interaction score is on record?
Response: 0.324

Prompt: For the binder DENAALKAENAALEAKIAALKAKIAALKG [4H1710-AA] , what interaction score is on record?
Response: -0.675

Prompt: For the binder DKIAALKAEIAALKAKNAALKAKNAALEG [4H2687-AA] , what interaction score is on record?
Response: -0.818

Prompt: For the binder DKIAALKAENAALKAEIAALEAKIAALKG [4H2758-AA] , what interaction score is on record?
Response: -0.325

Prompt: For the binder DKIAALEAKNAALKAEIAALKAKNAALKG [4H2512-AA] , what interaction score is on record?
Response: 1.21

Prompt: For the binder DKNAALEAEIAALEAKNAALKAKIAALKG [4H3134-AA] , what interaction score is on record?
Response: 1.96

Prompt: For the binder DKIAALKAKNAALEAKIAALKAEIAALEG [4H2985-AA] , what interaction score is on record?
Response: -0.847

Prompt: For the binder DENAALKAKNAALKAEIAALEAEIAALEG [4H1985-AA] , what interaction score is on record?
Response: -1.05

Prompt: For the binder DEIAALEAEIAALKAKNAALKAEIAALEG [4H121-AA] , what interaction score is on record?
Response: 0.672

Prompt: For the binder DEIAALEAKIAALEAENAALEAKIAALKG [4H278-AA] , what interaction score is on record?
Response: 0.702

Prompt: For the binder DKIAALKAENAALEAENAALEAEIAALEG [4H2705-AA] , what interaction score is on record?
Response: -1.62

Prompt: For the binder DENAALEAEIAALEAKIAALKAENAALKG [4H1068-AA] , what interaction score is on record?
Response: -1.36

Prompt: For the binder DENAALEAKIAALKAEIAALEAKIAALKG [4H1350-AA] , what interaction score is on record?
Response: -1.11

Prompt: For the binder DKIAALEAENAALEAEIAALKAENAALEG [4H2187-AA] , what interaction score is on record?
Response: -1.46
